test: soluble on expression in E. coli; label from the status in PepcDB or PDB records
assay_readout: soluble on expression in E. coli

• GPGSMASKKQADGSKDIGDAAWREKLTTQEYRVLRQKATDPPFGAYNTHFETGTYHCAGCGTLLYKSSMKFPCECGWPAFFDCVPLAVREEPDSDGVRTEILCNACGGHLGHVFRGEGFNNPPPNERHCVNGTAIRFQSEK = soluble
• MFSFNMFDHPIPRVFQNRFSTQYRCFSVSMLAGPNDRSDVEKGGKIIMPPSALDQLSRLNITYPMLFKLTNKNSDRMTHCGVLEFVADEGICYLPHWMMQNLLLEEGGLVQVESVNLQVATYSKFQPQSPDFLDITNPKAVLENALRNFACLTTGDVIAINYNEKIYELRVMETKPDKAVSIIECDMNVDFDAPLGYKEPERQVQHEESTEGEADHSGYAGELGFRAFSGSGNRLDGKKKGVEPSPSPIKPGDIKRGIPNYEFKLGKITFIRNSRPLVKKVEEDEAGGRFVAFSGEGQSLRKKGRKP = soluble
• GKSTTLFSRHTKAIVWGMQTRAVQGMLDFDYVCSRDEPSVAAMVYPFTGDHKQKFYWGHKEILIPVFKNMADAMRKHPEVDVLINFASLRSAYDSTMETMNYAQIRTIAIIAEGIPEALTRKLIKKADQKGVTIIGPATVGGIKPGCFKIGNTGGMLDNILASKLYRPGSVAYVSRSGGMSNELNNIISRTTDGVYEGVAIGGDRYPGSTFMDHVLRYQDTPGVKMIVVLGEIGGTEEYKICRGIKEGRLTKPIVCWCIGTCATMFSSEVQFGHAGACANQASETAVAKNQALKEAGVFVPRSFDELGEIIQSVYEDLVANGVIVPAQEVPPPTV = soluble
• MKTKIIGVLGLGIFGQTLAQELSNFEQDVIAIDSNPENVQAVAEVVTKAAIGDITDLAFLKHIGISDCDTVIIATGNSLESSVLAVMHCKKLGVPQVIAKARNLVYEEVLYEIGADLVISPERESGQNVAANLMRNKITDVFQIESDISVIEFKIPKSWVGKTVEQLNIRHKFDLNLIGIRKAKNKPVDTEVPINSPLEEGIILVAIANSDAFQRYDYLGYFNLEHHHHHH = soluble

We next turn to a different sequence, shown below.
Fill blank: measured soluble on expression in E. coli of the sequence QVQLQQPGAELVKPGTSVKLSCKASGYNFTSYWINWVKLRPGQGLEWIGDIYPGSGITNYNEKFKSKATLTVDTSSSTAYMQLSSLASEDSALYYCAGQYGNLWFAYWGQGTLVTVS is ____.
soluble

====

assay: soluble on expression in E. coli; label from the status in PepcDB or PDB records
assay_readout: soluble on expression in E. coli

- AMADIGSMGDPLTWSKALKKLEKVTVQGSQKLTTGNCNWALSLVDLFHDTNFVKEKDWQLRDVIPLLEDVTQTLSGQEREAFERTWWAISAVKMGLQINNVVDGKASFQLLRAKYEKKTANKKQSEPSEEY: soluble
- GPGSMLANYDYESDLRGRTDELGRAQHVDAYDKHPTFLESPYAGQEDLLRDAPQSYMDGPPPGYGGHDAYEHVDMNGGGYDLPLQPQAQTQAVDTRRLSKDRLARGGLNIFSWNTDAPTLNHPREVRERDCAELQRLRPVDSAAQRDKEVREKFEGNTQSRFLCFSESDSPGKRRGVRVFNPNNKNGNLNSGTGHENPIQNRFNEEPQPFKIRQQQPRPLPQQNLPPAGRATHSNRQESGGIPGFAGMGEGRQHNARRGRGSYRG: not soluble
- MGSDKIHHHHHHMKVTFGQQTTKVKQLADLLSQEISMGKYKSDCTLPSINKLSREYQVSRDTVFKAFIDLKDRGIIDSTPGKGYYVTNKLTNILLLLDEYSPFKYSLYNSFIKKLSINYKVDLLFHQYNERLFNTILRESIGRYNKYIVMNFDNEKLSPHLYKIDSSKLLLLDFGKFDKKDYSYVCQDFDDSFYHALAALKEHLRKYQRLVLLFPEDIKHPRSSCQYFNCFCQDYHIDSAIVENTDRIQVRKGEVYIAIRQIEVVNIIKQSRTTGLKCGEDFGLIAYNDTPAYEVIDQGITVLSINWEELGRKAAEFVLTGQEIRTYLPTEVHLRNSI: not soluble
- MNNNDVLRKLRYTFNFNDKQMVAIFASAGEEVSREQVSQWLKKDTDSDFVALFDTKLAVFLNGFINEKRG: not soluble

# batch size: 2; output soluble on expression in E. coli per entry
1. MFALEVLALERRTALLLGASGLVGGELLKLLLQSDLYRCVTIFVRTPLPVEHEKLQQVVVDFARLESYERYFYVDDVFCCLGTTRKKAKTKQQFIQVDYEYTLRAAALAEKCRAKSFLTVSSVGANPCSPFFYQRVKGETEEALQRLSIPSLHIFRPSLLVGKRREFRLGEALGGWLLCRLPFLFVGKWKKYKPVDAHQLALAMFYRAASATSGVHIYECDELARIS
2. MLDTAAIIISQGKKIAYAYAEGVNDNMTQSHFHDFFELYYLLEGERMHMIEGEIYHLTANDFVLFPPHIMHHSYGEKDMPFKRIVLYFSPDLIANDTICQLLSEKELLFVNEGYIPNQILSLLLSLTHEIDVPGKYHDAYICNQLNGLLLNMLRLDFEAVKSIPKTRSAKAVDYIHNHYMEDISVNQLAEILYVSPYHLCHEFKNATGKTIIQYLNTTRILHAQRLMLETDYNITQISREVGFSNLTHFNRTFKKITGVAPREKKKLYQK

["not soluble", "not soluble"]

For the 2 sequences below, give their soluble on expression in E. coli values.
1. SLIDNPHAQDYWPNRGQMDVQGLAVKYTEAGRAVLSDISFSVEGGLSMGLLGRTGSGKSTLLSALLRLASTDGEISIDGISWNSVPLEKWRKAFGVVPQKVFILTGTFRMNLDPHGRYSDEELWRVADQVGLKSVIEQFPDRLDFQLENGGSVLSHGHKQLMCLARSILSKARILLLDEPSAYLDTITLQVLRKTLKHAFSDCTVILSEHKVEPLLECDSFLVIEGSSVKSYDSIQKLLNEMSDLKQAVSAAD
2. CLTRISRPWLVTSCIWNKQLIRRAVVWLCGLTGKPILKLTNKDYTENGLGELLAKYGSAYEVNIKLFNDIQHTITGWPGGKPNADDSSRPERALPYPKRVVIFSPHPDDDVISMGGTFHKLVNQGHDVHVAYQTSGNIAVGDEEVIRYVSYLRNVCRQYGHESSPILAKAEEVRHYLMHKKIEGDPEQEDIRFMKGTIRREEARTACRYLGLPEDHVHFLDLPFYETGLIRKNPLGEEDVRIIMALLEEIQPHRIFVAGDLADPHGTHRICLNAVLAAIDELKEESWFKEDCRVWMYRGAWAEWEIDYIEMAVPMSPDELRFKRNSILKHQSQMESAPFLGDDERLFWQRAEDRNRQTATLYEKLGLASYEAIEAFVQYRPVE

1: soluble; 2: not soluble
